Assay: Human liver microsome stability
Assay type: in vitro ADME
Settings: human, pooled human liver microsomes, pH 7.4, pooled human liver microsomes 0.5 mg/mL, 1 μM compound, NADPH 1 mM, 37° C., 0-60 min; read-out: HLM Metabolism t1/2
Experimental: Human Liver Microsome Stability t½ (Min) of Compounds of Formula (I) […] All incubations are performed singularly for each compound. […] The internal standard was added (1:1 supernatant to internal standard solution) and samples were analyzed using standard LC-MS conditions. From a plot of ln peak area ratio (compound peak area/internal standard peak area) against time, the gradient of the line is determined. […]
measurement-type: half-life at 1 μM (h)
Answers are plain numbers, in h.

CC(c1cc(F)ccn1)N1C[C@@H](C)n2nc3c(c2C1=O)CN(C(=O)c1ccc(Cl)c(Cl)c1)[C@H](C)C3 (single isomer, unassigned) [Compound 32A]	1.68

Request the reported half-life at 1 μM associated with CN=[S@](C)(=O)c1ccc([C@H](C)N2C[C@@H](C)n3nc4c(c3C2=O)CN(C(=O)c2ccc(Cl)c(Cl)c2)[C@H](C)C4)cn1 (relative stereo) [Compound 29C]
1.43

###

System: HBV (HepG2.117 cell line, inducibly HBV producing)
Experiment: Anti-HBV activity, intracellular HBV DNA by real-time PCR in HepG2.117 cell line
Format: cell-based, hepatitis B virus
Conditions: Hepatitis B virus, HepG2.117, 72 h, HepG2.117 cells, 3 days of treatment
measurement-type: EC50 (µM)
Give bare numbers, in µM.

In the examples that follow, each entry is paired with its recorded EC50.
C[C@@H]1Cc2nn3c(c2CN1C(=O)c1ccc(Cl)c(Cl)c1)C(=O)N([C@H](C)c1ccc([S@@](C)(=N)=O)cc1)C[C@H]3C (relative stereo) [Compound 18B]	0.031
C[C@@H]1Cc2nn3c(c2CN1C(=O)c1ccc(Cl)c(Cl)c1)C(=O)N([C@@H](C)c1ccc([S@](C)(=N)=O)cc1)C[C@H]3C (relative stereo) [Compound 18C]	0.03
C[C@@H]1Cc2nn3c(c2CN1C(=O)c1ccc(Cl)c(Cl)c1)C(=O)N([C@@H](C)c1ccc([S@@](C)(=N)=O)cc1)C[C@H]3C (relative stereo) [Compound 18D]	0.024

For every listed record, write down its EC50.
1. C[C@@H]1Cc2nn3c(c2CN1C(=O)c1ccc(Cl)c(C#N)c1)C(=O)N([C@@H](C)c1ccc(OC(F)F)cc1)CC3 [Ref 2, reference compound]
2. CC(c1ccc(N2CCCC2=O)cc1)N1C[C@@H](C)n2nc3c(c2C1=O)CN(C(=O)c1ccc(Cl)c(C#N)c1)[C@H](C)C3 (single isomer, unassigned) [Compound 9A]

1: 0.03; 2: 0.022

###

Test system: HBV (HepG2.117 cell line, inducibly HBV producing)
Assay: Anti-HBV activity, intracellular HBV DNA by real-time PCR in HepG2.117 cell line
Format: cell-based, hepatitis B virus
Conditions: HepG2.117 cells, 3 days of treatment
measurement-type: EC50 (µM)
Numbers only, in µM.

For every listed record, write down its EC50.
1. CC(c1ccc(C(C)(C)O)nc1)N1C[C@@H](C)n2nc3c(c2C1=O)CN(C(=O)c1ccc(Cl)c(C#N)c1)[C@H](C)C3 (single isomer, unassigned) [Compound 63A]
2. CC(c1ccc(C(C)(C)O)nc1)N1C[C@@H](C)n2nc3c(c2C1=O)CN(C(=O)c1ccc(Cl)c(C(F)(F)F)n1)[C@H](C)C3 (single isomer, unassigned) [Compound 62A]
3. CC(c1cnc(NC2CC2)nc1)N1C[C@@H](C)n2nc3c(c2C1=O)CN(C(=O)c1ccc(Cl)c(Cl)c1)[C@H](C)C3 (single isomer, unassigned) [Compound 37A]
4. CC(c1cn(C2CC2)c(=O)cn1)N1C[C@@H](C)n2nc3c(c2C1=O)CN(C(=O)c1ccc(Cl)c(Cl)c1)[C@H](C)C3 (single isomer, unassigned) [Compound 56B]
5. CC(c1ccc(C(F)(F)F)nc1)N1C[C@@H](C)n2nc3c(c2C1=O)CN(C(=O)c1ccc(Cl)c(C#N)c1)[C@H](C)C3 (single isomer, unassigned) [Compound 12B]

[0.38, 0.61, 0.15, 0.084, 0.068]

###

Tested on: HBV (HepG2.117 cell line, inducibly HBV producing)
Experiment: Anti-HBV activity, intracellular HBV DNA by real-time PCR in HepG2.117 cell line
Format: cell-based, hepatitis B virus
Details: HepG2.117 cells, 3 days of treatment
measurement-type: EC50 (µM)
Answers are plain numbers, in µM.

CC(c1ccc(C(C)(C)O)nc1)N1C[C@@H](C)n2nc3c(c2C1=O)CN(C(=O)c1ccc(Cl)c(F)c1)[C@H](C)C3 (single isomer, unassigned) [Compound 59A]	0.51
C[C@@H]1Cc2nn3c(c2CN1C(=O)c1ccc(Cl)c(C(F)(F)F)c1)C(=O)N([C@@H](C)c1ccc([S@](C)(=O)=NC#N)cc1)C[C@H]3C (relative stereo) [Compound 20D]	0.032

Request the reported EC50 associated with CC(c1ccc(N2CCCS2(=O)=O)nc1)N1C[C@@H](C)n2nc3c(c2C1=O)CN(C(=O)c1ccc(Cl)c(C(F)(F)F)c1)[C@H](C)C3 (single isomer, unassigned) [Compound 28B]
0.011

###

I'd be grateful if you could share measured EC50 for these entries.
System: HBV (HepG2.117 cell line, inducibly HBV producing)
Experiment: Anti-HBV activity, intracellular HBV DNA by real-time PCR in HepG2.117 cell line
Format: cell-based, hepatitis B virus
Settings: HepG2.117 cells, 3 days of treatment
Answers are plain numbers, in µM.

In the examples that follow, each entry is paired with its recorded EC50.
Cc1ncc(C(C)N2C[C@@H](C)n3nc4c(c3C2=O)CN(C(=O)c2ccc(Cl)c(Cl)c2)[C@H](C)C4)cn1 (single isomer, unassigned) [Compound 4A]	0.28
CC(c1cnc(NC2CC2)nc1)N1C[C@@H](C)n2nc3c(c2C1=O)CN(C(=O)c1ccc(Cl)c(Cl)c1)[C@H](C)C3 (single isomer, unassigned) [Compound 37B]	0.041
CC(c1cc(F)ccn1)N1C[C@@H](C)n2nc3c(c2C1=O)CN(C(=O)c1ccc(Cl)c(Cl)c1)[C@H](C)C3 (single isomer, unassigned) [Compound 32B]	0.088
CC(c1ccc(C(C)(C)O)nc1)N1C[C@@H](C)n2nc3c(c2C1=O)CN(C(=O)c1ccc(Cl)c(C(F)(F)F)n1)[C@H](C)C3 (single isomer, unassigned) [Compound 62B]	0.068
CC(c1ccc(C(C)(C)O)nc1)N1C[C@@H](C)n2nc3c(c2C1=O)CN(C(=O)c1cc(Cl)c(Cl)cn1)[C@H](C)C3 (single isomer, unassigned) [Compound 57B]	0.65
CC(c1cnc(C(C)(C)O)cn1)N1C[C@@H](C)n2nc3c(c2C1=O)CN(C(=O)c1ccc(Cl)c(C(F)(F)F)c1)[C@H](C)C3 (single isomer, unassigned) [Compound 41A]	0.076
CC(c1ccc(C(C)(C)O)cc1)N1C[C@@H](C)n2nc3c(c2C1=O)CN(C(=O)c1ccc(Cl)c(Cl)c1)[C@H](C)C3 (single isomer, unassigned) [Compound 8B]	0.009
C[C@@H]1Cc2nn3c(c2CN1C(=O)c1ccc(Cl)c(C(F)(F)F)c1)C(=O)N([C@@H](C)c1ccc([S@@]2(=O)=NCCC2)nc1)C[C@H]3C (relative stereo) [Compound 30B]	0.074
CC(c1cnc(C(C)(C)O)nc1)N1C[C@@H](C)n2nc3c(c2C1=O)CN(C(=O)c1ccc(Cl)c(Cl)c1)[C@H](C)C3 (single isomer, unassigned) [Compound 36A]	0.64

# next compound below
Reported EC50 for HBV (HepG2.117 cell line, inducibly HBV producing), given CC(c1ncc(C(F)(F)F)cn1)N1C[C@@H](C)n2nc3c(c2C1=O)CN(C(=O)c1ccc(Cl)c(Cl)c1)[C@H](C)C3 (single isomer, unassigned) [Compound 40B] ?
0.26

###

Tested on: HBV (HepG2.117 cell line, inducibly HBV producing)
Experiment: Anti-HBV activity, intracellular HBV DNA by real-time PCR in HepG2.117 cell line
Assay type: cell-based, hepatitis B virus
Details: Hepatitis B virus, HepG2.117, 72 h, HepG2.117 cells, 3 days of treatment
I'd be grateful if you could share measured EC50 for these entries.
I'd appreciate it if you wrote the number followed by its unit.

CN=[S@@](C)(=O)c1ccc([C@H](C)N2C[C@@H](C)n3nc4c(c3C2=O)CN(C(=O)c2ccc(Cl)c(Cl)c2)[C@H](C)C4)cn1 (relative stereo) [Compound 29D]	0.059 µM

For every listed record, write down its EC50.
1. CC(c1ccn(CC(F)(F)F)n1)N1C[C@@H](C)n2nc3c(c2C1=O)CN(C(=O)c1ccc(Cl)c(C#N)c1)[C@H](C)C3 (single isomer, unassigned) [Compound 42B]
2. CNC(=O)c1ccc(C(C)N2C[C@@H](C)n3nc4c(c3C2=O)CN(C(=O)c2ccc(Cl)c(Cl)c2)[C@H](C)C4)cn1 (single isomer, unassigned) [Compound 24A]
3. C[C@@H]1Cc2nn3c(c2CN1C(=O)c1ccc(Cl)c(C(F)(F)F)c1)C(=O)N([C@H](C)c1ccc([S@](C)(=N)=O)cc1)C[C@H]3C (relative stereo) [Compound 19A]
4. C[C@@H]1Cc2nn3c(c2CN1C(=O)c1ccc(Cl)c(C(F)(F)F)c1)C(=O)N([C@H](C)c1ccc([S@@](C)(=N)=O)cc1)C[C@H]3C (relative stereo) [Compound 19B]

1. 0.06 µM
2. 0.038 µM
3. 0.026 µM
4. 0.015 µM
